- Test System: human CGRP receptor (Homo sapiens (Human), UniProt O60894+Q16602)
- Sequence (Q16602 23-461): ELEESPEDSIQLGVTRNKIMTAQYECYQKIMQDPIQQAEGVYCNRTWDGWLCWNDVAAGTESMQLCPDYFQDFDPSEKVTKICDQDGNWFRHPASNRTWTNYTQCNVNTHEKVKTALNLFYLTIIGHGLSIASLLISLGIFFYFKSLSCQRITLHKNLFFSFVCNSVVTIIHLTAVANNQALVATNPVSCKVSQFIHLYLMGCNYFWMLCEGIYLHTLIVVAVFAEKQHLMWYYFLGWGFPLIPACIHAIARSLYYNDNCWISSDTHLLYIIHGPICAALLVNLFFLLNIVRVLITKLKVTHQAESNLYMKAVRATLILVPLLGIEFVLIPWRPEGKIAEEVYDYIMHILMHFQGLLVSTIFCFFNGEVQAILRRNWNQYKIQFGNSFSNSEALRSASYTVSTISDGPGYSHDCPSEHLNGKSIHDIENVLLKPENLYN
- Sequence (O60894 27-148): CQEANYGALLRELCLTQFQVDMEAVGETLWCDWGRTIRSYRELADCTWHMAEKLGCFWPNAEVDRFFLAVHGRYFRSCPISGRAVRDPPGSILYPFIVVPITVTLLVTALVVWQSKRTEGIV
- Method Description: cAMP functional assay (HTRF) in SK-N-MC cells
- Format: cell-based
- Measurement Conditions: read-out: pKb average (converted)
Overview of reported Kb across a group of molecules:
Kindly report the value followed by its unit.

Solved entries (count: 3):
• Cc1cc(C[C@@H](NC(=O)N2CCC(c3cc4ccccc4[nH]c3=O)CC2)C(=O)N2CCC(N3CCC(c4nnc(C(=O)O)[nH]4)CC3)CC2)cc2cn[nH]c12 [Example 9] = 0.398 nM
• Cc1cc(C[C@@H](NC(=O)N2CCC(c3cc4ccccc4[nH]c3=O)CC2)C(=O)N2CCC(N3CCC(c4nncn4C)CC3)CC2)cc2cn[nH]c12 [Example 4] = 0.631 nM
• Cc1cc(C[C@@H](NC(=O)N2CCC(c3cc4ccc(F)cc4[nH]c3=O)CC2)C(=O)N2CCC(N3CCC(c4nncn4C)CC3)CC2)cc2cn[nH]c12 [Example 5] = 0.631 nM

Short answer for Cc1cc(C[C@@H](NC(=O)N2CCC(c3cc4ccccc4[nH]c3=O)CC2)C(=O)N2CCC(N3CCC(c4ncc[nH]4)CC3)CC2)cc2cn[nH]c12 [Example 1] : Kb was 0.2 nM

Short answer for Cc1nc[nH]c1C1CCN(C2CCN(C(=O)[C@@H](Cc3cc(C)c4[nH]ncc4c3)NC(=O)N3CCC(c4cc5ccccc5[nH]c4=O)CC3)CC2)CC1 [Example 2] : Kb was 0.316 nM

Short answer for Cc1cc(C[C@@H](NC(=O)N2CCC(c3cc4ccccc4[nH]c3=O)CC2)C(=O)N2CCC(N3CCC(c4nnc[nH]4)CC3)CC2)cc2cn[nH]c12 [Example 7] : Kb was 0.316 nM

---

- Method Description: Thermodynamic solubility profiling
- Type: physicochemical
- Measurement Conditions: aqueous buffer, thermodynamic from solid; Sodium Phosphate Buffer pH 6.0, 24 h at rt; read-out: Thermodynamic solubility pH 6
Entry flag: class 1 if solubility thermodynamic at 24 h reaches 1000 µM; class 0 if it does not.

• Cc1cc(C[C@@H](NC(=O)N2CCC(c3cc4ccccc4[nH]c3=O)CC2)C(=O)N2CCC(N3CCC(c4nncn4C)CC3)CC2)cc2cn[nH]c12 = class 1
• CCCn1ccnc1C1CCN(C2CCN(C(=O)[C@@H](Cc3cc(C)c4[nH]ncc4c3)NC(=O)N3CCC(c4cc5ccccc5[nH]c4=O)CC3)CC2)CC1 = class 1
• Cc1nc[nH]c1C1CCN(C2CCN(C(=O)[C@@H](Cc3cc(C)c4[nH]ncc4c3)NC(=O)N3CCC(c4cc5ccccc5[nH]c4=O)CC3)CC2)CC1 = class 1
• Cc1cc(C[C@@H](NC(=O)N2CCC(c3cc4ccc(F)cc4[nH]c3=O)CC2)C(=O)N2CCC(N3CCC(c4nncn4C)CC3)CC2)cc2cn[nH]c12 = class 1
• NCCCC[C@H](NC(=O)[C@@H](Cc1cc(Br)c(O)c(Br)c1)NC(=O)N1CCC(N2Cc3ccccc3NC2=O)CC1)C(=O)N1CCN(c2ccncc2)CC1 [olcegepant, reference compound] = class 0
• Cc1nnc(C2CCN(C3CCN(C(=O)[C@@H](Cc4cc(C)c5[nH]ncc5c4)NC(=O)N4CCC(c5cc6ccccc6[nH]c5=O)CC4)CC3)CC2)[nH]1 = class 1

Now look at this entry.
// query Would you say `Cc1cc(C[C@@H](NC(=O)N2CCC(c3cc4ccccc4[nH]c3=O)CC2)C(=O)N2CCC(N3CCC(c4nnc[nH]4)CC3)CC2)cc2cn[nH]c12` shows solubility thermodynamic at 24 h at minimum 1000 µM?
// result class 0
